All values here come from patent US20240342292A1.

# Target Of Assay: L858R/T790M/C797S EGFR (Homo sapiens, UniProt P00533, C797S/L858R/T790M)
# Construct: expressed in transfected cells; host or cells: H1975 clone #25 (lentiviral over-expression, endogenous EGFR knocked out by sgRNA)
# Sequence (P00533 25-1210 T790M/C797S/L858R): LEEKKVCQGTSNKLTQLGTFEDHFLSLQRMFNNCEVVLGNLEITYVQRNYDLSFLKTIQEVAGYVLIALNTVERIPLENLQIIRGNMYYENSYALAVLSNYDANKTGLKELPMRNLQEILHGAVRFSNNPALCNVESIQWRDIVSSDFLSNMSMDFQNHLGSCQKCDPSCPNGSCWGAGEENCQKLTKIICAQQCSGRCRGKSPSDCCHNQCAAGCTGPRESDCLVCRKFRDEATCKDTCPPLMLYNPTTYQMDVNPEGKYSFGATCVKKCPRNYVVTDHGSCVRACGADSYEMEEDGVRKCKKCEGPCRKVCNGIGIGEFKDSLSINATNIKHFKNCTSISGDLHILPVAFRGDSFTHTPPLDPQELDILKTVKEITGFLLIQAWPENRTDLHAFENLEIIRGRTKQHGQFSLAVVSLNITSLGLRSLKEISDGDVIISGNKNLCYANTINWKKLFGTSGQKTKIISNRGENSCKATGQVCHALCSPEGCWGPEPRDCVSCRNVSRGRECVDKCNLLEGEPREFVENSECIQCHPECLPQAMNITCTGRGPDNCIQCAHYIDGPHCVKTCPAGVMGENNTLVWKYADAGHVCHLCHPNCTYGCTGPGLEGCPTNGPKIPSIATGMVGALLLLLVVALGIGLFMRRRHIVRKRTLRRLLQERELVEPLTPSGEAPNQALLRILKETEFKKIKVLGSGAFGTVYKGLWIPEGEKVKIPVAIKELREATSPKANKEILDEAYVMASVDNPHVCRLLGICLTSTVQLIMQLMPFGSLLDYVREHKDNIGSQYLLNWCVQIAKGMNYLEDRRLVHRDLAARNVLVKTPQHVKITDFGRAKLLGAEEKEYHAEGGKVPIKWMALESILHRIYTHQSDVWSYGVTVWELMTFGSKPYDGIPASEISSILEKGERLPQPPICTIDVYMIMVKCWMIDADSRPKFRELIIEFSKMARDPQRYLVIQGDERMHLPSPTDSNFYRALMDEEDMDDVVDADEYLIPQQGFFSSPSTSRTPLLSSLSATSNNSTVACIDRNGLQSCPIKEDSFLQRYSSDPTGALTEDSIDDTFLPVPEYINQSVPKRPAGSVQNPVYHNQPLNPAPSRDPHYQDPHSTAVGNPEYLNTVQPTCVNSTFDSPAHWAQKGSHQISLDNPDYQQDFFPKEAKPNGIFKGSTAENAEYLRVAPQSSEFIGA
# Test Protocol: EGFR degradation HTRF assay in H1975-clone #25 (LTC) cells
# Assay type: cell-based
# Condition Context: NCI-H1975, H1975 # 25-LTC (L858R/T790M/C797S), 16h treatment, maximum percentage of degradation
Dmax values, listed per item
Give a bare numeral; the unit % is implied.

Cc1cc2cc(n1)-c1cnn(C)c1OCCC[C@@H](C)CN1/C(=N/C2=O)Nc2ccc(N3CCN(C4CCN(c5cc(F)c([C@H]6CCC(=O)NC6=O)c(F)c5)CC4)CC3=O)cc21    92.7
Cc1cc2cc(n1)-c1cnn(C)c1OCCC[C@@H](C)CN1/C(=N/C2=O)Nc2ccc(CN3CCN(C(=O)[C@@H]4CCN(c5cc(F)c([C@H]6CCC(=O)NC6=O)c(F)c5)C4)C[C@H]3C)cc21    85.5
Cc1cc2cc(n1)-c1cnn(C)c1OCCC[C@@H](C)CN1/C(=N/C2=O)Nc2ccc(C(=O)N(C)C[C@H]3CCN(CCc4cc(F)c([C@H]5CCC(=O)NC5=O)c(F)c4)CC3(F)F)cc21    69.2
Cc1cc2cc(n1)-c1cnn(C)c1OCCC[C@@H](C)CN1/C(=N/C2=O)Nc2ccc(N3CCN(C4CCN(c5cc(F)c([C@H]6CCC(=O)NC6=O)c(F)c5)CC4)[C@H](C)C3)cc21    86.5

The record that follows has no Dmax shown yet.
Q: Data request, read-out Dmax, for Cc1cc2cc(n1)-c1cnn(C)c1OCCC[C@@H](C)CN1/C(=N/C2=O)Nc2ccc(C(=O)N(C)C3CCN(CCc4cccc5c4n(C)c(=O)n5C4CCC(=O)NC4=O)CC3)cc21 (some centres unmarked)
A: 75.3
